- studyTarget: UniProt:P0DMS8
- Sequence (P0DMS8 whole entry): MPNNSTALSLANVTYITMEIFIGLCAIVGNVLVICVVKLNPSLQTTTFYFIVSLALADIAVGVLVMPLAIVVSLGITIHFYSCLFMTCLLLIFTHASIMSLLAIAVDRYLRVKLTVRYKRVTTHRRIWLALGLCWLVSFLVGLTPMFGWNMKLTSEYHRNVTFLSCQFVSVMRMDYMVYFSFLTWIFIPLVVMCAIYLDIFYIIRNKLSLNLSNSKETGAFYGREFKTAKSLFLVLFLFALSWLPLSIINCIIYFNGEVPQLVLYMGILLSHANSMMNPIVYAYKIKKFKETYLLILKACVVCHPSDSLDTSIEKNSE
Readings of Ki for the listed molecules

{"molecule": "O=C(Nc1cc2ccccc2oc1=O)c1ccccc1 [N-(2-oxidanylidenechromen-3-yl)benzamide]", "Ki": "3.24 µM"}
{"molecule": "O=C(Nc1cc2ccccc2oc1=O)c1cccnc1 [N-(coumarin-3-yl)nicotinamide (6)]", "Ki": "> 100 µM"}
{"molecule": "O=C(Nc1cc2ccccc2oc1=O)c1ccco1 [N-(Coumarin-3-yl)furan-2-carboxamide (8)]", "Ki": "9.79 µM"}
{"molecule": "C=CC(=O)Nc1c(O)c2ccccc2oc1=O [N-(4-Hydroxycoumarin-3-yl)acrylamide (3)]", "Ki": "> 100 µM"}
{"molecule": "O=C(Nc1c(O)c2ccccc2oc1=O)c1ccccc1 [N-(4-hydroxycoumarin-3-yl)benzamide (5)]", "Ki": "> 100 µM"}

Query :: Which Ki is listed for C=CC(=O)Nc1cc2ccccc2oc1=O [N-(Coumarin-3-yl)acrylamide (2)] ?
Result :: > 100 µM
